Test system: U937 cells (human monocytic cell line)
experimentDescription: BzATP-induced IL-1β secretion inhibition in PMA-differentiated U937 cells
Assay type: cell-based
testContext: U-937, U937 cells differentiated with PMA, read-out: IL-1β production inhibition grade (IC50)
Procedure: To evaluate anti-inflammatory efficacy, U937 cells (human monocytic cell line) were differentiated into macrophages using PMA (phorbol 12-myristate 13-acetate) and then induced an inflammatory response with Pam2CSK4 (Pam2CysSerLys4) or BzATP (2′(3′)—O-(4-Benzoylbenzoyl)adenosine 5′-triphosphate), the efficacy of taurine-bile acid derivatives in suppressing inflammatory cytokine (IL-1β, TNF-α) production was measured. […]
pIC50: −log10 of the molar value.
readoutName: pIC50

>>> result("C[C@H](CCC(=O)N1CCC[C@@H](S(=O)(=O)O)C1)[C@H]1CC[C@H]2[C@@H]3CC[C@@H]4C[C@H](O)CC[C@]4(C)[C@H]3CC[C@]12C")
"6.70 to 7.00"
>>> result("C[C@H](CCC(=O)NC[C@H](C)S(=O)(=O)O)[C@H]1CC[C@H]2[C@@H]3CC[C@@H]4CC(=O)CC[C@]4(C)[C@H]3CC[C@]12C")
"≤ 6.70"
>>> result("CC[C@H]1[C@@H](O)[C@@H]2[C@H](CC[C@]3(C)[C@@H]([C@H](C)CCC(=O)N[C@H](C)CS(=O)(=O)O)CC[C@@H]23)[C@@]2(C)CC[C@@H](O)C[C@@H]12")
"≤ 6.70"
>>> result("C[C@H](CCC(=O)N[C@@H](C)CS(=O)(=O)O)[C@H]1CC[C@H]2[C@@H]3CC[C@@H]4C[C@H](O)CC[C@]4(C)[C@H]3C[C@H](O)[C@]12C")
"6.70 to 7.00"
>>> result("C[C@H](CCC(=O)NC[C@H](C)S(=O)(=O)O)[C@H]1CC[C@H]2[C@@H]3CC[C@@H]4C[C@H](O)CC[C@]4(C)[C@H]3C[C@H](O)[C@]12C")
"7.00 to 7.30"
>>> result("C[C@H](CCC(=O)N(C)CCS(=O)(=O)O)[C@H]1CC[C@H]2[C@@H]3CC[C@@H]4C[C@H](O)CC[C@]4(C)[C@H]3CC[C@]12C")
"> 7.30"
>>> result("C[C@H](CCC(=O)N[C@@H](C)CS(=O)(=O)O)[C@H]1CC[C@H]2[C@@H]3CC[C@@H]4CC(=O)CC[C@]4(C)[C@H]3CC[C@]12C")
"≤ 6.70"
>>> result("CC(C)[C@@H](CS(=O)(=O)O)NC(=O)CC[C@@H](C)[C@H]1CC[C@H]2[C@@H]3[C@H](O)C[C@@H]4C[C@H](O)CC[C@]4(C)[C@H]3C[C@H](O)[C@]12C")
"> 7.30"
>>> result("CC[C@H]1[C@@H](O)[C@@H]2[C@H](C[C@H](O)[C@]3(C)[C@@H]([C@H](C)CCC(=O)N[C@@H](Cc4ccccc4)CS(=O)(=O)O)CC[C@@H]23)[C@@]2(C)CC[C@@H](O)C[C@@H]12")
"> 7.30"
>>> result("CC[C@H]1[C@@H](O)[C@@H]2[C@H](CC[C@]3(C)[C@@H]([C@H](C)CCC(=O)N[C@@H](CC(C)C)CS(=O)(=O)O)CC[C@@H]23)[C@@]2(C)CC[C@@H](O)C[C@@H]12")
"≤ 6.70"
